Hey, just so you know, these numbers are from patent US20240316022A1.

# target or test system: BCR-FGFR1 Ba/F3 (Homo sapiens, UniProt P11362)
# Construct: host or cells: Ba/F3; the other entry of the earlier key: BCR (P11274, Breakpoint cluster region protein)
# Sequence (P11362 478-767 limits assumed): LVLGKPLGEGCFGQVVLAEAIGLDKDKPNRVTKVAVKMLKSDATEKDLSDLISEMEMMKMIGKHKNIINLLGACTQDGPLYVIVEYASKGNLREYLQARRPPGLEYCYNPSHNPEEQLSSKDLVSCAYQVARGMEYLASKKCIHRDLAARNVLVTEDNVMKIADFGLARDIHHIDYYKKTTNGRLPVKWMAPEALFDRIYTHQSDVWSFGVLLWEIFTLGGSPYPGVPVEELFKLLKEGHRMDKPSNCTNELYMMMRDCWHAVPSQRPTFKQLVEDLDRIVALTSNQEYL
# assay: Ba/F3 cell viability assay (CellTiter-Glo 2.0)
# Format: cell-based
# measurement conditions: Ba/F3 BCR-FGFR1 cells, 48 hours
Record form. Attribute: IC50. Fill in for each entry.

State, for BCR-FGFR1 Ba/F3 (Homo sapiens, UniProt P11362), measured IC50 of the compound listed here: Cc1cc(-c2n[nH]c3ccc(O[C@H](C)c4c(Cl)cnc(C)c4Cl)cc23)cnc1N[C@@H]1CCOC1 [Example 164]
> 1000 nM

State, for BCR-FGFR1 Ba/F3 (Homo sapiens, UniProt P11362), measured IC50 of the compound listed here: C[C@@H](Oc1ccc2[nH]nc(-c3cnc(N)c(OC(F)F)c3)c2c1)c1c(Cl)cncc1Cl [Example 28]
> 1000 nM

State, for BCR-FGFR1 Ba/F3 (Homo sapiens, UniProt P11362), measured IC50 of the compound listed here: C[C@@H](Oc1ccc2[nH]nc(-c3ccc(OC4C5CN(S(C)(=O)=O)CC54)nc3)c2c1)c1c(Cl)cncc1Cl (stereo partly shown) [Example 162]
100 to 250 nM

State, for BCR-FGFR1 Ba/F3 (Homo sapiens, UniProt P11362), measured IC50 of the compound listed here: Cc1ncc(Cl)c([C@@H](C)Oc2ccc3[nH]nc(-c4ccc5c(c4)COC4(CCN(CC(F)F)CC4)O5)c3c2)c1Cl [Example 166]
> 1000 nM

State, for BCR-FGFR1 Ba/F3 (Homo sapiens, UniProt P11362), measured IC50 of the compound listed here: C=CC(=O)N1CCOc2ncc(-c3n[nH]c4ccc(O[C@H](C)c5c(Cl)cncc5Cl)cc34)cc21 [Example 25]
> 1000 nM

State, for BCR-FGFR1 Ba/F3 (Homo sapiens, UniProt P11362), measured IC50 of the compound listed here: Cc1cc(-c2n[nH]c3ccc(O[C@H](C)c4c(Cl)cnc(C)c4Cl)cc23)cnc1O[C@@H]1CCOC1 [Example 148]
250 to 1000 nM

State, for BCR-FGFR1 Ba/F3 (Homo sapiens, UniProt P11362), measured IC50 of the compound listed here: Cc1cc(-c2n[nH]c3ccc(O[C@H](C)c4c(Cl)cncc4Cl)cc23)cnc1N[C@H]1CCOC1 [Example 153]
250 to 1000 nM
